Listed here are compounds together with their documented melting point.

compound	melting point
CC(C)OC(=O)N1CCC(c2nc3cc(-c4ccc(-n5cnnn5)c(F)c4)ccc3o2)CC1	187 to 191 °C
CON=C(C(=O)N[C@@H]1C(=O)N[C@@H]1C(=O)N(C)C)c1csc(NC(=O)CCl)n1 (relative stereo)	160 to 165 °C
COc1cccc(C(=O)Nc2ccc(N3CCOCC3)cc2C(C)=O)c1OC	146 to 148 °C
CC(C)(C)NCC(O)COc1ccc2oc(-c3ccc(O)c(O)c3)cc(=O)c2c1 (configuration not stated)	193 °C
CC(=O)C(C(=O)c1ccccc1)N(C)C (configuration not stated)	72 to 74 °C
CCCCCCCCOC1CCC(=O)N1 (configuration not stated)	36 to 38 °C
C#CCN1C(=O)COc2cc(-c3nn(C)c(C(F)(F)F)c3Cl)c(F)cc21	184 °C
OC1CSC(Oc2cccnc2-c2ccncc2)C(O)C1O (configuration not stated)	129 °C
COc1cc(N(Cc2cccc(SC(F)(F)F)c2)C[C@@H](O)C(F)(F)F)cc(OC)c1OC	88.9 to 89.1 °C
COc1ccc(Cn2c(=O)oc(=O)c3cc(Cl)cnc32)cc1	173 °C
Nc1nc(Cl)nc2c1ncn2COCCO	188 to 190 °C
Cc1cccc(S(=O)(=O)Nc2cccnc2Nc2ccccc2)c1	161 to 162 °C
CCNS(=O)(=O)c1cncc([N+](=O)[O-])c1	117 to 118 °C
COc1cc2c(cc1NCc1ccccc1)ncc1c(N)nc(-c3cccnc3)cc12	251 to 258 °C
Cc1[nH]c(C)c(-c2ccc(Oc3ccc(Cl)cc3)cc2)c(=O)c1Cl	340 to 343 °C
Nc1ccc2c(c1)C(=O)CC21CCCC1	125 °C
O=c1c(Cl)nsnc1Sc1ccccc1	99.5 to 102 °C
O=C1Cc2cccc(Oc3ccccc3O)c2O1	150 to 152 °C
COC(=O)c1cc2c(cc(C=O)c3ccccc32)s1	196 to 198 °C
CN1CC(OC(c2ccccc2)c2ccccc2)C1	44 to 48 °C
Nc1ccc(-c2c(-c3ccccc3)c(-c3ccccc3)c(-c3ccc(N)cc3)c(-c3ccccc3)c2-c2ccccc2)cc1	453 °C
COc1cc2c(cc1OCc1ccccc1)C(O)CN(Cc1cc(OC)c(OC)c(OC)c1)C2 (configuration not stated)	126 to 127 °C
CN(C)C(=O)c1cnn(-c2ccc(Br)cc2)c1C#N	131 to 133 °C
N#CNc1ccc(OCc2ccccc2)cc1	105 °C
CSc1nn2c(N)cc(C)nc2c1S(=O)(=O)c1ccc(Cl)cc1	> 230 °C
NC(=O)c1ccc(F)c2c1CC(N(CCC(=O)c1c[nH]c3ccc(F)cc13)C1CCC1)CO2 (configuration not stated)	139 °C
COC(=O)C1=C(C)NC(C)=C(C(=O)OCCOC(=O)c2ccc(NC(C)=O)cc2)C1c1cccc([N+](=O)[O-])c1 (configuration not stated)	190 to 193 °C
